Test system: MOLT-4 leukemia
Measurement protocol: NCI-60 one-dose screen, 48 h
Setup conditions: 10 µM unless noted
Compounds without any hit were thinned out: in the full panel of roughly 83,000, 20% have a hit. Active and inactive are the calls of the source. How the source made its calls: active means growth percent below 10; inactive means the rest.
Please reply with one of these outcomes: active, inactive

Use the examples below as a reference point.
CSc1nc2c(c(=O)[nH]1)N=C1c3ccccc3C(=O)C1C(c1ccc(F)cc1)N2 (stereo unspecified) : inactive
CCCN1CCN(c2ccc3nc(-c4ccc5nc(-c6cc(OC)ccc6OC)[nH]c5c4)[nH]c3c2)CC1 : inactive
COc1cccc(C(=O)Cn2cc(/C=C(\C#N)S(=O)(=O)c3ccccc3)c3ccccc32)c1 : inactive
O=C1/C(=C/c2ccc(O)cc2)COc2ccc(O)cc21 : inactive
O=c1c(-c2nc3ccccc3[nH]2)cc2ccccc2n1Cc1cn(Cc2ccccc2Cl)nn1 : inactive

In this assay, the call recorded for COc1ccc(CCN2C(=O)/C(=C/c3ccc(C4Oc5ccccc5C5CC(c6cccc(OC)c6)=NN54)cc3)SC2=S)cc1 (stereo unspecified) was what?
inactive

In this assay, the call recorded for O=C1C(=O)c2c(ccc3ccccc23)-c2ccccc21 was what?
active

In this assay, the call recorded for COc1ccc(C2=Nn3c(NN)nnc3SC2)cc1 was what?
inactive

In this assay, the call recorded for CCOc1ccc(Nc2ccnc3cc(Cl)ccc23)cc1 was what?
active

In this assay, the call recorded for C[C@@H](C(=O)NCCCC#Cc1cnc(Nc2ccc(C#N)cc2)nc1NC1CC1)N(C)C(=O)/C=C/CN(C)C was what?
active

In this assay, the call recorded for COC(=O)c1c2c(c(C)[n+]([O-])c1C)C(=O)C(NCc1ccc(Br)cc1)=CC2=O was what?
inactive

In this assay, the call recorded for O=C(Nc1ccc(F)cc1F)c1cc(Br)ccc1O was what?
active

In this assay, the call recorded for CC[C@H](C)[C@@H](C(=O)OC)n1cc(CNC(=O)[C@@H](Cc2ccccc2)NC(=O)OCc2ccccc2)nn1 was what?
inactive

In this assay, the call recorded for CCOC(=O)CSc1c(-c2ccccc2)c2cc(Cl)ccc2[nH]c1=O was what?
inactive

In this assay, the call recorded for CN(O)c1nc(N(C)O)nc(N2CCOCC2)n1 was what?
inactive

In this assay, the call recorded for COc1cc(/C=C/C(=O)c2ccc(Nc3nc(NCCO)nc(N4CCOCC4)n3)cc2)cc(OC)c1OC was what?
active

In this assay, the call recorded for CCOC(=O)c1sc(-c2ccc(OS(=O)(=O)c3ccc(Br)s3)c(C=O)c2)nc1C was what?
active

---

List of growth values.
System: NCI-H460 lung
Measurement protocol: NCI-60 one-dose screen, 48 h (100 = growth as untreated, 0 = no growth, -100 = all killed)
Setup conditions: 10 µM unless noted
The panel holds about 83,000 compounds, 20% with a hit somewhere; the sample as a whole holds those more often.
Give a bare numeral; the unit % is implied.

Here's what some known entries look like.
CCOc1ccc2c(c1)CN(Cc1ccc(Cl)cc1)CO2 : 40.1
O=c1c2cc(F)ccc2sc2c(NCCN3CCCC3)nc3ccccc3c12 : 12.3
O=C(Nc1ccc(Cl)cc1F)c1cc(F)ccc1O : 4.1
COc1cc(C(C)n2cc(-c3ccccc3)nn2)ccc1OC1CCCCC1 (stereo not given) : 70.5
COc1cc(/C=C2\CN(S(=O)(=O)c3ccccc3)C/C(=C\c3cc(CN4CCCC4)c(O)c(OC)c3)C2=O)cc(CN2CCCC2)c1O : -30.7
COc1ccccc1C(=O)/C=C/c1ccccc1 : 66.4
NCCNc1nc2ccc(F)cc2c2c(=O)c3cc(F)ccc3sc12 : -54.7
Fc1cccc(COc2ccc(Nc3ncnc4onc(-c5ccccc5)c34)cc2)c1 : 2.61

Find growth (NCI-H460 lung) for the entry O=C(c1nc2ccccc2[nH]1)C1C(c2cccc([N+](=O)[O-])c2)C2CC3CCCCC3N2[C@@]12C(=O)Nc1cc(Cl)ccc12 (stereo not given in full)
9.08

Find growth (NCI-H460 lung) for the entry Nc1nc(Nc2cccc(F)c2)nc2ccccc12
31.6

---

Tested on: SN12C renal
Measurement protocol: NCI-60 one-dose screen, 48 h (100 = growth as untreated, 0 = no growth, -100 = all killed)
Setup conditions: 10 µM unless noted
Experimental: Growth inhibition of the SN12C human tumor cell line is measured as a screen for anti-cancer activity. Cells are grown in 96 well plates and exposed to the test compound for 48 hours. Compounds are tested at a single concentration, which is 10^-5 M for most compounds. The reported endpoint is percent growth (GI% or GIPRCNT), where numbers from 0 - 100% represent growth inhibition, and numbers from -100% - 0 represent cell death. For example, a value of 40 represents 60% growth inhibition. […]
About 83,000 compounds went through this panel and 20% of them were active in at least one assay; those are over-represented in the sample as a whole.
Rule: met for growth not less than 50%, not met for anything less.

c1ccc2cc3c(Nc4ccc(N5CCOCC5)cc4)ccnc3cc2c1 : met
Cc1[nH]c2ccccc2c(=O)c1CC=C(Cl)Cl : not met
NNC(=O)CNC(=O)Nc1n[nH]c(=S)s1 : met

// inclusive: growth at least 50%? input: COc1ccc(C2C3=C(COC3=O)N(CCO)c3cc4c(cc32)CCC4)cc1OC (stereo not given)
not met

// inclusive: growth at least 50%? input: COC(=O)/C(CCC=C(C)C)=C1\[C@@H](OC(C)=O)C[C@@]2(C)[C@H]1C[C@@H](O)[C@H]1[C@@]3(C)CC[C@H](NCCCNCCCCNCCCN)[C@@H](C)[C@@H]3CC[C@@]12C
not met

---

System: NCI/ADR-RES ovarian
Measurement protocol: NCI-60 one-dose screen, 48 h
Setup conditions: 10 µM unless noted
About 83,000 compounds went through this panel and 20% of them were active in at least one assay; those are over-represented in the sample as a whole. The source made the active and inactive calls. Rule for the calls: active = growth percent below 10; inactive = the rest.
Please reply with one of these outcomes: 1.0 (active), 0.0 (inactive)

Use the examples below as a reference point.
CNCCNc1nc2ccccc2c2c(=O)c3cc(F)ccc3sc12 : 0.0
Cc1c(C(=O)OCCO)cc(-c2ccc(Cl)cc2)n1-c1ccc(Cl)cc1Cl : 0.0

In this assay, the call recorded for COc1ccccc1C(=O)/C=C/c1ccccc1 was what?
0.0

In this assay, the call recorded for COc1ccc(/C=C2\CCC/C(=C\c3ccc(OC)c(OC)c3)C2=O)cc1OC was what?
0.0

In this assay, the call recorded for COc1ccc(N)c(-c2cc3c(c4c2[nH]c2ccc(OC)cc24)CCCC3)c1 was what?
0.0

In this assay, the call recorded for COc1ccc(/C=c2\sc3n(c2=O)NC2C(N=3)N(C)C(=O)N2C)cc1 (stereo unspecified) was what?
0.0

In this assay, the call recorded for Cc1cc2c(c(C)c1Cl)C(=O)/C(=C/c1cccc([N+](=O)[O-])c1)O2 was what?
0.0

In this assay, the call recorded for O=C(NC(=S)Nc1cccc(NC(=S)NC(=O)c2ccccc2)c1)c1ccccc1 was what?
0.0

---

Tested on: HCT-116 colon
Measurement protocol: NCI-60 one-dose screen, 48 h
Setup conditions: 10 µM unless noted
Compounds without any hit were thinned out: in the full panel of roughly 83,000, 20% have a hit. Active and inactive are the calls of the source. The calls were made as follows: active = growth percent below 10; inactive = the rest.
Please reply with one of these outcomes: yes = active, no = inactive

O=c1oc2ccc(Br)cc2c(=O)n1-c1ccc(Br)cc1F : yes
COc1ccccc1C(=O)O/N=C(\N)Cc1cccc2ccccc12 : no
COc1ccc(-c2nsc3c2NC(=O)CC3c2cccc(OC)c2)cc1 (stereo unspecified) : no

In this assay, the call recorded for CC(=O)c1ccc(Nc2nc(NCCO)nc(Nc3ccc(Cl)cc3)n2)cc1 was what?
no

In this assay, the call recorded for Fc1cccc(COc2ccc(Nc3ncnc4onc(-c5ccccc5)c34)cc2)c1 was what?
yes

In this assay, the call recorded for CCOc1ccc2nc(C)cc(Nc3ccc(Br)cc3)c2c1 was what?
no

In this assay, the call recorded for COc1ccc(C(O)(CCC(C)C)C(CN2CCOCC2)c2ccc(Cl)cc2)cc1 (stereo unspecified) was what?
no

In this assay, the call recorded for Cc1cccc2c(=O)c3c(sc12)c(N1CCNCC1)nc1ccccc13 was what?
no

In this assay, the call recorded for C[n+]1c2ccccc2nc2ccc(NCCO)cc21 was what?
no

In this assay, the call recorded for CS(=O)(=O)Nc1ccc(C(=O)NC(C(=O)NO)c2ccc(-c3cccc(F)c3)cc2)cc1 (stereo unspecified) was what?
no

In this assay, the call recorded for COc1ccc(S(=O)(=O)N(Cc2ccc3c(n2)C=CC(C)(C)O3)C2CCC2)cc1OC was what?
yes

In this assay, the call recorded for CSc1nc2c(c(=O)n1C)N=C1c3ccccc3C(=O)C1C(c1ccccc1)N2 (stereo unspecified) was what?
no

In this assay, the call recorded for CC[C@@H](C)[C@H](NC(=O)Cn1cc(CNC(=O)[C@@H](NC(=O)OCc2ccccc2)C(C)C)nn1)C(=O)O was what?
no

In this assay, the call recorded for COc1ccc(-c2nocc2-c2cccs2)cc1 was what?
no

In this assay, the call recorded for CCN1C(=O)N(CC)C2Nn3c(s/c(=C\c4ccccc4F)c3=O)=NC21 (stereo unspecified) was what?
no

In this assay, the call recorded for Cc1sc2ncn(CC(=O)Nc3ccc(S(N)(=O)=O)cc3)c(=O)c2c1C was what?
no

In this assay, the call recorded for CN=c1ccc2nc3ccc(N)cc3sc-2c1 was what?
yes

In this assay, the call recorded for COC(=O)c1c2c(c(C)[n+]([O-])c1C)C(=O)C(NCc1ccc(Br)cc1)=CC2=O was what?
yes

In this assay, the call recorded for CCOc1ccc(-c2nonc2NC(=O)c2cccc(C)c2)cc1OCC was what?
no

In this assay, the call recorded for CC[C@H](C)[C@@H](C(=O)OC)n1cc(CNC(=O)[C@@H](Cc2ccccc2)NC(=O)OCc2ccccc2)nn1 was what?
no

In this assay, the call recorded for Nc1no[n+]([O-])c1-c1nnc2c(n1)-c1ccccc1C2=O was what?
yes
